# Tested on: tet-on competent MLL/AF9+Nras AML
# Test Method Notes: Pooled negative selection RNAi screening (deep sequencing)
# Format: cell-based, mouse
# Measurement Context: deep sequencing reads, On Dox compared to T0
# Fold depletion in AML per record follows
Quantity: Fold depletion in AML (Fold)

| Molecule | Quantity | Value Observed |
| --- | --- | --- |
| Fn1.4143: shRNA, SEQ ID NO: 121 (nucleic acid) TGCTGTTGACAGTGAGCGCCAGTAGGATACTACACAGTTATAGTGAAGCCACAGATGTATAACTGTGTAGTATCCTACTGATGCCTACTGCCTCGGA | Fold depletion in AML | 36.54 |
| Plcb2.3742: shRNA, SEQ ID NO: 167 (nucleic acid) TGCTGTTGACAGTGAGCGCAGGGACCTTAATACTCAGATATAGTGAAGCCACAGATGTATATCTGAGTATTAAGGTCCCTTTGCCTACTGCCTCGGA | Fold depletion in AML | 10.81 |
| Cdc42ep3.1922: shRNA, SEQ ID NO: 104 (nucleic acid) TGCTGTTGACAGTGAGCGCAACAAGCAAGGTATTACTGTATAGTGAAGCCACAGATGTATACAGTAATACCTTGCTTGTTTTGCCTACTGCCTCGGA | Fold depletion in AML | 315.30 |
